system: Plasmodium berghei; assay: Luciferase/luciferin-expressing antifolate-resistant parasites were used to infect a culture of HepG2 cells that were pre-incubated with compounds. Infected hepatocytes emit light due to the luciferase reaction. Assay results are presented as the percent inhibition of light emission compared to control. […]; type: functional; settings: sporozoite, read-out: LUCIFERASE INFECTION ASSAY - IC90
Reported Property: IC90

query: Which value of IC90 has been reported for `CC(C)Oc1cccc(-c2cn3c(-c4ccccc4Cl)cnc3cn2)c1` in the records?
result: > 9.07 µM

query: Request the reported IC90 associated with `COc1ccc(-n2c(C)cc(C(=O)CSc3nc4c(n3-c3ccccc3)CCCC4)c2C)cc1`
result: > 10 µM

query: Sample `O=C(Nc1ccc(N2CCOCC2)cc1)c1ccccc1Nc1ccc(F)cc1` — what was its IC90?
result: > 10 µM

query: Value lookup for IC90; key = `O=C(NCCOc1cccc(Oc2ccccc2)c1)c1cccs1`
result: > 9.72 µM

query: Reported IC90, compound CC1CC(OCC(O)CN2CCN(c3ccc(F)cc3)CC2)CC(C)(C)C1 (stereo not given) : ____
result: > 7.31 µM
